Source listed as PubChem BioAssay (NCI).

assay.text: NCI Yeast Anticancer Drug Screen. Data for the sgs1 mgt1 strain (AID 161)
reported.conditions: S. cerevisiae sgs1 mgt1 strain; at 50.0 µM unless noted
This is part of a sample that, as a whole, favours compounds with a hit. Of some 79,000 tested, about 15% had one in any assay. Calls of active or inactive are those of the source. No stated cut-off is given here; in the data, active means growth inhibition above about 70%; inactive means the rest.
Entry note: the call must match one of active, inactive

Worked examples follow.
compound	cat
c1ccc(C2(c3ccc(C4(c5ccccc5)Oc5ccccc5S4)[nH]3)Oc3ccccc3S2)cc1 (stereo not drawn)	inactive
CCOc1ccc(N=Nc2c(-c3ccccc3)nn(C(=O)CC(=O)Nc3ccccc3Cl)c2-c2ccccc2)cc1	inactive
ClC1c2cccc3cccc(c23)C1Cl (stereo not drawn)	inactive
C/C(=N\NC(=O)c1ccncc1)c1cc(Cl)ccc1Cl	inactive

Q) Returns: the outcome recorded for CC1(C)N=C(Oc2cc(Cl)cc(Cl)c2)NC(=S)N1 in this assay.
A) inactive

Q) Any idea what this test logged for COc1cccc(C2C(C(=O)Nc3cc(=O)n(C)c(=O)n3C)=C(C)NC(C)=C2C(=O)Nc2cc(=O)n(C)c(=O)n2C)c1O ?
A) inactive
